# TESTED_SYSTEM: GR (Homo sapiens)
# Sequence (P04150 1-777): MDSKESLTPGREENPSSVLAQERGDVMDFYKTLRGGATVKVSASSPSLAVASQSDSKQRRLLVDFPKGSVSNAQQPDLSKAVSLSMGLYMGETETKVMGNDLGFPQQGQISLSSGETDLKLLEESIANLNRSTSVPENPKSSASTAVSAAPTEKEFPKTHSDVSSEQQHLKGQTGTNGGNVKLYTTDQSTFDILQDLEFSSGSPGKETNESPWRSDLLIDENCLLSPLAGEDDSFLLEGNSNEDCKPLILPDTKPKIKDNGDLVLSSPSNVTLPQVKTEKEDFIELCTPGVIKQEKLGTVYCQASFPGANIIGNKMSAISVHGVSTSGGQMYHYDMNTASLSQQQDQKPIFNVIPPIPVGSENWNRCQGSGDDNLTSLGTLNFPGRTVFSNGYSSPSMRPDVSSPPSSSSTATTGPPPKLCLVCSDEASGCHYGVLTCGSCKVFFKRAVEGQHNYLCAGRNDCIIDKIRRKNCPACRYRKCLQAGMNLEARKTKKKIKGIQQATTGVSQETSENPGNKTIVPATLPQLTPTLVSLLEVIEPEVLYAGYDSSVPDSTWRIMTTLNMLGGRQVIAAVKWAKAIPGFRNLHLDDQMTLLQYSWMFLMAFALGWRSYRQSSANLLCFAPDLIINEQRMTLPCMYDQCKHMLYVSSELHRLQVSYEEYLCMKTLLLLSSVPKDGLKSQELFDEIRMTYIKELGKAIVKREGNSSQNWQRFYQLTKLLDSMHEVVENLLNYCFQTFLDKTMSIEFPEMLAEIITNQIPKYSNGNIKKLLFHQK
# EXPERIMENT_SUMMARY: CHO-GR B4.8 MMTV-luciferase induction of gene expression (agonistic)
# EXPERIMENTAL_CONTEXT: CHO cells co-transfected with human GR and MMTV-luciferase; mean (±SD); read-out: EC50, MMTV-luc induction
VALUE_TYPE: EC50

INSERT INTO measurements (compound, value_type, experimental_result) VALUES
  ('Cc1nnsc1C(=O)N[C@H]1CCN2c3ccc(C#N)cc3[C@@H](C)c3ccccc3[C@@H]2C1 [Org 214007-0]', 'EC50', '5.1 nM');
